B1: SPATS1 (parent)
chain: YPEQSKGFHKAGSMLPPVNFSIVP

variants of: B1; assay: protein stability index of a GFP-peptide fusion (GPS, HEK-293T) (PSI 1-6); higher = more stable; settings: c terminus: a fixed tail appended;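 note: lentivirally expressed fusions sorted by FACS into six bins by GFP to DsRed ratio, PSI derived from sequencing read proportions per bin multiplied by bin number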
Decision: protein stability index >= 2 yields label 1, all other cases yield label 0.

A selection of reference data follows.
YPEQSKGFHTAGSMLPPVNFSIVP [K10T]; label 1
YPEQSKGFWKAGSMLPPVNFSIVP [H9W]; label 1
YPEQSKGFHKAGSMLPPVNFSIIP [V23I]; label 1
YPEQSKGFHKAGSMAPPVNFSIVP [L15A]; label 0
YPEQSKGFHKAGSMLPPVYFSIVP [N19Y]; label 1
YPEQSKGFHKAGSMLPPVNFSWVP [I22W]; label 0

Okay, next one:
Exercise: Would you say YPEQSKGFHKAGSMLPPVNFIIVP [S21I] shows protein stability index at minimum 2?
Solution: label 1

// data source = the supplement of paper PMC10567573
